Exercise: for every item that follows, state its recorded GI50.
tested on: TK-10; experiment: NCI tumour cell line growth inhibition, 48 h
Where a name gives a salt, the structure may show the parent alone. The source made the active and inactive calls. No stated cut-off is given here; in the data, active = GI50 up to about 1.1 µM and inactive = higher.

Answer for every listed entry: what is its GI50? The entries follow.
1. C#C[C@]1(O)CC[C@H]2[C@@H]3CCC4=C/C(=N/CCOC(=O)c5cccc6c(=O)c7ccccc7[nH]c56)CC[C@@H]4[C@H]3CC[C@@]21C
2. Cc1ccc(/N=N/c2cc(=O)[nH]c(=O)[nH]2)cc1C
3. NCCS [CYSTEAMINE HYDROCHLORIDE]
4. CC(=O)c1ccc(-c2oc(-c3ccccc3)cc2-c2ccc3c(c2)OCO3)s1
5. COc1cc(NCCC2CCCCN2)c2ncccc2c1 (stereo not drawn)
6. Oc1[nH]c(Nc2cccc(Br)c2)nc2ncnc1-2

1. 45.8 µM (inactive)
2. 19.4 µM (inactive)
3. > 100 µM (inactive)
4. > 100 µM (inactive)
5. > 73.6 µM (inactive)
6. 87.1 µM (inactive)

----------
test system: SK-MEL-5; experiment: NCI tumour cell line growth inhibition, 48 h
The source made the active and inactive calls. No stated cut-off is given here; in the data, active = GI50 up to about 1.1 µM and inactive = higher.
Exercise: for every item that follows, state its recorded GI50.

Some molecules with known GI50 results, for comparison:
• COc1ccc2cc1Oc1ccc(cc1)CC1c3cc4c(cc3CCN1C)Oc1c(OC)cc3c(c1O4)C(C2)N(C)CC3 (stereo not drawn) = 8.57 µM (inactive)
• CCOC(=O)c1c(SCC#N)n(-c2ccccc2)c(=S)n(-c2ccccc2)c1=O = 27 µM (inactive)
• COc1cccc(N2C(=O)C3CC(CC(C)(C)C)c4c([nH]c5ccccc45)C3C2=O)c1 (stereo not drawn) = > 10 µM (inactive)

Answer for every listed entry: what is its GI50? The entries follow.
1. COc1ccc(S(=O)(=O)O)cc1-n1nc(C(=O)Nc2ccccc2)n[n+]1-c1cc(S(=O)(=O)[O-])ccc1OC
2. CC(=O)O[C@H]1[C@@H](N2CCCCC2)C[C@H]2[C@@H]3CC=C4C[C@@H](N5CCCC5)CC[C@]4(C)[C@H]3CC[C@@]21C

1. > 100 µM (inactive)
2. 32.4 µM (inactive)

Answer for every listed entry: what is its GI50? The entries follow.
1. O=C(c1ccco1)N(C(=O)N1CCN(c2ccccc2)CC1)S(=O)(=O)c1ccccc1
2. C=CC(CBr)CCC(Br)C(C)(C)Br (stereo not drawn)
3. O=C1C(F)=CC(COC(c2ccccc2)(c2ccccc2)c2ccccc2)OC1n1cc(F)c(=O)[nH]c1=O (stereo not drawn)

1. 24.4 µM (inactive)
2. > 10 µM (inactive)
3. 1.35 µM (inactive)

----------
test system: SW-620; experiment: NCI tumour cell line growth inhibition, 48 h
Calls of active or inactive are those of the source. Cut-off read from the data, not from the text of the source: active = GI50 up to about 1.1 µM and inactive = higher.
Exercise: for every item that follows, state its recorded GI50.

Some compounds with known GI50 results, for comparison:
- CCOC(=O)/C(I)=C/c1cc(OC)c(OC)c(OC)c1: 3.55 µM (inactive)
- COC(=O)C1(SC)C2CCC3C2CCC31 (configuration not stated): > 100 µM (inactive)
- CC(=O)N[C@@H](Cc1ccc(O)cn1)C(=O)NCc1cccc(Cl)c1: > 100 µM (inactive)
- CN(C)c1nc(N(C)C)sc(=O)n1: > 100 µM (inactive)
- Nc1sccc1S(=O)(=O)c1ccsc1N: > 100 µM (inactive)

Answer for every listed entry: what is its GI50? The entries follow.
1. CC(=O)c1ccc(-c2oc(-c3ccccc3)cc2-c2ccc3c(c2)OCO3)s1
2. COc1cc(C(=O)O)c(-c2cc3c(cc2C=O)OCO3)c(OC)c1OC

["> 100 µM (inactive)", "> 10 µM (inactive)"]
